# EC50 per entry
# ASSAY_TARGET: hFXR (Homo sapiens, UniProt Q96RI1)
# Sequence (Q96RI1 1-486): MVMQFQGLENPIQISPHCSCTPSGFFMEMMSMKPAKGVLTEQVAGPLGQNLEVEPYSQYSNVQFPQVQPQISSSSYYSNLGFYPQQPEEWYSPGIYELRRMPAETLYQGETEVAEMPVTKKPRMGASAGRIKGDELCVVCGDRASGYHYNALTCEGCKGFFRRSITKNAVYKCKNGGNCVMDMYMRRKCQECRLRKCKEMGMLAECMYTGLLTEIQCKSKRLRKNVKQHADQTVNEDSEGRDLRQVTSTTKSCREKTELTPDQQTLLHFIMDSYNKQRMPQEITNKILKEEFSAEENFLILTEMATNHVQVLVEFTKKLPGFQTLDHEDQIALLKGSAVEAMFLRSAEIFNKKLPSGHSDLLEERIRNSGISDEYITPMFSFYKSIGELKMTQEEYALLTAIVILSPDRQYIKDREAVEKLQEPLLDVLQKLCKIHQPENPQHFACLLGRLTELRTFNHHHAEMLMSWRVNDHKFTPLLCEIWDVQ
# Sequence (P19793 1-462 partner): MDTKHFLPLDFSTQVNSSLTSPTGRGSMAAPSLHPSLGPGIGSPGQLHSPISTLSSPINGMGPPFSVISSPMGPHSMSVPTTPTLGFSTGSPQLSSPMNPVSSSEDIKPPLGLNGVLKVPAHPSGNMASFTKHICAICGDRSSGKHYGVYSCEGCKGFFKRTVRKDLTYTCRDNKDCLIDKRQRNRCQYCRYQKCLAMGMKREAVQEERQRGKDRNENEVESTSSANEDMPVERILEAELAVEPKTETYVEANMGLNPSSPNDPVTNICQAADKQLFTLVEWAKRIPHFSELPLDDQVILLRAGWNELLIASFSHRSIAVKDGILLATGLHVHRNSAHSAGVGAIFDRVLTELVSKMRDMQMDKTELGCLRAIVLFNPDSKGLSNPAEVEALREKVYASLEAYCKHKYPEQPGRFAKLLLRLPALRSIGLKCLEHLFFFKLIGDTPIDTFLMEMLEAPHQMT
# PROTOCOL: In Vitro FXR Assay (TK)
# MEASUREMENT_PARAMETERS: CV-1 cells transfected with hFXR, hRXR, TK-ECRE-luc and pCMX-YFP; incubated with compound for 18 hrs; luminescence
PROPERTY_NAME: EC50

[
  {
    "COMPOUND": "COc1ccc(C23CCC(CN(c4cc(-c5cnc(C(C)C)s5)ccn4)C(=O)[C@H]4CC[C@H](CC(=O)O)CC4)(CC2)CC3)cc1C",
    "PROPERTY_NAME": "EC50",
    "TEST_RESULT": "≤ 50 nM"
  },
  {
    "COMPOUND": "CN(C)c1ccc(C23CCC(CN(c4cccc(-c5cnn(C(C)(C)C)c5)c4)C(=O)[C@H]4CC[C@H](CC(=O)O)CC4)(CC2)CC3)cn1",
    "PROPERTY_NAME": "EC50",
    "TEST_RESULT": "≤ 50 nM"
  },
  {
    "COMPOUND": "COc1ccc(C23CCC(CN(c4cccc(-c5cnn(C(C)C)c5)n4)C(=O)[C@H]4CC[C@H](CC(=O)O)CC4)(CC2)CC3)cc1C (relative stereo)",
    "PROPERTY_NAME": "EC50",
    "TEST_RESULT": "≤ 50 nM"
  },
  {
    "COMPOUND": "COc1ccc([C@H]2CC[C@H](CN(c3cccc(-c4cnn(C(C)(C)C)c4)c3)C(=O)[C@H]3CC[C@H](CCC(=O)O)CC3)CC2)cc1C",
    "PROPERTY_NAME": "EC50",
    "TEST_RESULT": "≤ 50 nM"
  },
  {
    "COMPOUND": "COc1ccc(C23CCC(CN(c4cc(-c5cnn(C(C)C)c5)ccn4)C(=O)[C@H]4CC[C@@H](C(=O)O)CC4)(CC2)CC3)cc1C",
    "PROPERTY_NAME": "EC50",
    "TEST_RESULT": "50 to 1000 nM"
  },
  {
    "COMPOUND": "COc1ccc(C23CCC(CN(c4cc(-c5cnn(C(C)(C)C)c5)ncn4)C(=O)[C@H]4CC[C@H](CC(=O)O)CC4)(CC2)CC3)cc1C",
    "PROPERTY_NAME": "EC50",
    "TEST_RESULT": "50 to 1000 nM"
  },
  {
    "COMPOUND": "COc1ncc(C23CCC(CN(c4cccc(-c5cnn(C(C)C)c5)c4)C(=O)[C@H]4CC[C@H](CC(=O)O)CC4)(CC2)CC3)cc1C",
    "PROPERTY_NAME": "EC50",
    "TEST_RESULT": "≤ 50 nM"
  },
  {
    "COMPOUND": "COc1ccc([C@H]2CC[C@H](CN(c3cccc(-c4cnn(C(C)(C)C)c4)c3)C(=O)[C@H]3CC[C@H](CC(=O)O)CC3)CC2)cc1C",
    "PROPERTY_NAME": "EC50",
    "TEST_RESULT": "≤ 50 nM"
  },
  {
    "COMPOUND": "COc1ccc(C23CCC(CN(c4cc(-c5ccn(C(C)C)n5)ccn4)C(=O)[C@H]4CC[C@H](CC(=O)O)CC4)(CC2)CC3)cc1C",
    "PROPERTY_NAME": "EC50",
    "TEST_RESULT": "≤ 50 nM"
  },
  {
    "COMPOUND": "COc1ccc(C23CCC(CN(c4cc(-c5cnc(C(C)(C)C)s5)ccn4)C(=O)[C@H]4CC[C@H](CC(=O)O)CC4)(CC2)CC3)cc1C",
    "PROPERTY_NAME": "EC50",
    "TEST_RESULT": "≤ 50 nM"
  },
  {
    "COMPOUND": "COc1ccc(C23CCC(CN(C(=O)[C@@H]4CCC[C@H](CC(=O)O)C4)c4cc(-c5cnn(C(C)C)c5)ccn4)(CC2)CC3)cc1C (relative stereo)",
    "PROPERTY_NAME": "EC50",
    "TEST_RESULT": "≤ 50 nM"
  },
  {
    "COMPOUND": "COc1ccc(C23CCC(CN(c4cc(-c5cnn(C(C)(C)C)c5)ccn4)C(=O)[C@H]4CC[C@H](CCC(=O)O)CC4)(CC2)CC3)cc1C",
    "PROPERTY_NAME": "EC50",
    "TEST_RESULT": "≤ 50 nM"
  }
]
